Molecular target: UniProt P28335
Sequence (P28335 whole entry): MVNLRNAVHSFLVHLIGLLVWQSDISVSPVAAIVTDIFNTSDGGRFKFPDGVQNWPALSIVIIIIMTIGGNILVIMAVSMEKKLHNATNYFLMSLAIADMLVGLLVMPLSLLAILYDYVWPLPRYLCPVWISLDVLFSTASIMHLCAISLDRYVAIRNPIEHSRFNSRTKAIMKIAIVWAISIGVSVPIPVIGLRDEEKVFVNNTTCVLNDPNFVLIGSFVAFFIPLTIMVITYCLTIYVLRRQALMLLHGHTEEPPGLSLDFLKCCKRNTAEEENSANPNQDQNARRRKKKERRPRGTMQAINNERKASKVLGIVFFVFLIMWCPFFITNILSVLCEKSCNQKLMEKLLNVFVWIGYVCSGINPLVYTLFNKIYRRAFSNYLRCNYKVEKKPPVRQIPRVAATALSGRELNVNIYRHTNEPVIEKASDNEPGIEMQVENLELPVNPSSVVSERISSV
Test: Agonist activity at human recombinant 5HT2C receptor expressed in CHOK1 cells assessed as induction of intracellular calcium release by FLIPR assay relative to 5-HT
Format: functional, cell-based
Details: CHO-K1
VALUE TYPE: Emax (%)

# input Endpoint output: Emax of CCN(C)c1c2c(nc3ccnn13)CCNCC2 . Value?
# output 105

# input Reported Emax, compound c1cc2nc3c(c(N4CCCC4)n2n1)CCNCC3 : ____
# output 110

# input For the compound CC(=O)N(C)c1ccc(OC2CN(c3c4c(nc5ccnn35)CCNCC4)C2)cc1 , what Emax is on record?
# output 96

# input Which Emax is listed for COc1ccccc1OC1CN(c2c3c(nc4ccnn24)CCNCC3)C1 ?
# output 84

# input Dear colleague, I am looking for the recorded Emax of the following compound: Fc1cccc(OC2CN(c3c4c(nc5ccnn35)CCNCC4)C2)c1
# output 78

# input Sample O=C1Cc2cc(OC3CN(c4c5c(nc6ccnn46)CCNCC5)C3)ccc2N1 — what was its Emax?
# output 99

# input Return reported Emax; argument: c1cc2nc3c(c(N4CCC4)n2n1)CCNCC3
# output 103

# input Dear colleague, I am looking for the recorded Emax of the following compound: CCNc1c2c(nc3ccnn13)CCNCC2
# output 104

# input # Emax lookup, item c1ccc(OC2CN(c3c4c(nc5ccnn35)CCNCC4)C2)nc1
# output 93

# input Name the reported Emax value associated with the compound c1cncc(OC2CN(c3c4c(nc5ccnn35)CCNCC4)C2)c1
# output 99

# input Bench note: what Emax did COc1cccc(OC2CN(c3c4c(nc5ccnn35)CCNCC4)C2)c1 show?
# output 88

# input Reported Emax for Fc1ccccc1OC1CN(c2c3c(nc4ccnn24)CCNCC3)C1 : what is it?
# output 85

###

Biological target: 5-hydroxytryptamine receptor 2A (Homo sapiens, UniProt P28223)
Sequence (P28223 whole entry): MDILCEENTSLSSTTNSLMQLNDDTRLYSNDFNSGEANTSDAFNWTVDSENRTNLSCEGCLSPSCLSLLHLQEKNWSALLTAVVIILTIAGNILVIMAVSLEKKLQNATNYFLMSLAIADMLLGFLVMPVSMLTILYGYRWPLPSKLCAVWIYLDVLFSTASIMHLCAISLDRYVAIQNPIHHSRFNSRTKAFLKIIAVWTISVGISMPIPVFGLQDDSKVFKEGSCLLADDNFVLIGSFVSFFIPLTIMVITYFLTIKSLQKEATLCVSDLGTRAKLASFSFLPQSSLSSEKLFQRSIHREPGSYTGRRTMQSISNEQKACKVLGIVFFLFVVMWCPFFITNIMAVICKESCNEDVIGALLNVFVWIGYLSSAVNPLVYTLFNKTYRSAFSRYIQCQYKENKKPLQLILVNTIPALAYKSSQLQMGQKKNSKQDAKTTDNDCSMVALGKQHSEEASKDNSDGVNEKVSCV
Experiment: Agonist activity at human recombinant 5HT2A receptor expressed in CHOK1 cells assessed as induction of intracellular calcium release by FLIPR assay relative to 5-HT
Assay type: functional, cell-based
Conditions: CHO-K1
VALUE TYPE: Emax (%)

Consider the reported Emax for these molecules:
# input Entry c1cncc(OC2CN(c3c4c(nc5ccnn35)CCNCC4)C2)c1 : reported Emax = ?
# output 94

# input Data request, read-out Emax, for COc1ccc(OC2CN(c3c4c(nc5ccnn35)CCNCC4)C2)cc1
# output 21

# input May I ask what Emax has been recorded for c1ccc(OC2CN(c3c4c(nc5ccnn35)CCNCC4)C2)nc1 ?
# output 29

[a] Fc1ccc(OC2CN(c3c4c(nc5ccnn35)CCNCC4)C2)cc1
[b] c1ccc(OC2CN(c3c4c(nc5ccnn35)CCNCC4)C2)cc1
[c] CCNc1c2c(nc3ccnn13)CCNCC2
[d] Fc1ccccc1OC1CN(c2c3c(nc4ccnn24)CCNCC3)C1
[e] Fc1cccc(OC2CN(c3c4c(nc5ccnn35)CCNCC4)C2)c1
# input Which order do these items take when sorted by rising Emax? List them. Could you list the labels in the order requested?
# output e, a, d, b, c
(e: 5%, a: 8%, d: 15%, b: 22%, c: 62%)

###

Molecular target: 5-hydroxytryptamine receptor 2A (Homo sapiens, UniProt P28223)
Assay: Agonist activity at human recombinant 5HT2A receptor expressed in CHOK1 cells assessed as induction of intracellular calcium release by FLIPR assay
pEC50: −log10 of the molar value.
VALUE TYPE: pEC50

# input Which pEC50 value belongs to c1ccc(OC2CN(c3c4c(nc5ccnn35)CCNCC4)C2)cc1 ?
# output 5.11

# input Entry Fc1cccc(OC2CN(c3c4c(nc5ccnn35)CCNCC4)C2)c1 : reported pEC50 = ?
# output 7.49

# input I have this compound here, CC(=O)N(C)c1ccc(OC2CN(c3c4c(nc5ccnn35)CCNCC4)C2)cc1 , and I need its recorded pEC50.
# output 5.69

# input GET /values?readout=pEC50&item= COc1cccc(OC2CN(c3c4c(nc5ccnn35)CCNCC4)C2)c1
# output 7.40

[P] c1cncc(OC2CN(c3c4c(nc5ccnn35)CCNCC4)C2)c1
[Q] c1cc(OC2CN(c3c4c(nc5ccnn35)CCNCC4)C2)ccn1
# input When P and Q are compared, which has the higher number for pEC50? Refer to your chosen item by its label in the answer.
# output P
(P: 7.20, Q: 5.91)

[P] Fc1ccccc1OC1CN(c2c3c(nc4ccnn24)CCNCC3)C1
[Q] c1cc2nc3c(c(N4CCC4)n2n1)CCNCC3
[R] c1ccc(OC2CN(c3c4c(nc5ccnn35)CCNCC4)C2)nc1
[S] CCNc1c2c(nc3ccnn13)CCNCC2
[T] Fc1ccc(OC2CN(c3c4c(nc5ccnn35)CCNCC4)C2)cc1
# input Thanks in advance: please rank these 5 entries by pEC50, highest to lowest. Provide your answer as the labels ordered per the instruction.
# output T, S, P, Q, R
(T: 8.52, S: 6.86, P: 6.19, Q: 5.63, R: 5.29)

[A] COc1ccccc1OC1CN(c2c3c(nc4ccnn24)CCNCC3)C1
[B] c1cc2nc3c(c(N4CCCCC4)n2n1)CCNCC3
# input Lab notebook, comparison: A versus B , higher pEC50 goes to which? Answer by stating the label of the chosen item.
# output B
